ASSAY_OVERVIEW: Plasma concentration in FCA-induced guinea pig mechanical hyperalgesia model at 10 mg/kg, po after 1 hr
Assay type: ADME, organism-based, Cavia porcellus
VALUE_KIND: concentration at 1 h (ng/mL)
Numeric only. Scale: ng/mL

Input `Cc1nc(C)c(-c2csc(Nc3ccc(C(=O)N4C5COCC4CC(=O)C5)cn3)n2)s1` . Output concentration at 1 h: 515

----------
ASSAY_OVERVIEW: Half life in guinea pig at 0.5 mg/kg, iv
Format: ADME, organism-based, Cavia porcellus
STATED_CONDITIONS: in vivo
VALUE_KIND: half-life
Write the figure, then the unit, nothing else.

Reported half-life ( `Cc1nc(C)c(-c2csc(Nc3ccc(C(=O)N4C5COCC4CC(=O)C5)cn3)n2)s1` ) = 1.1 h
